Reference source: patent US20210395394A1

Catalogue of binders with associated pKd
target: Pan-species-specific antigen Plasmodium Lactate DeHydrogenase (Pan-PLDH) protein; test: indirect ELISA at four coating concentrations, KD calculated from half-maximal OD
API: returns pKd as number; meaning -log10 of concentration in mol/L.

Solved cases (3 shown):
Mutation 1-49 (antibody, mouse IgG2b, kappa, V domains shown) VH: QVQLQQPGAELVRPGASVKLSCKASGSSFTNYWMNWVKQRPGQGLEWIGMIHPSDSETRLNQKFKDKATLTVDKSSSTAYMQLSSLTAEDSAVYYCAKSGDFYTTYFDYWGQGTTLTVSS VL: DIQLTQSPASLSASVGETVTITCRGTGNLHNYLAWYQQKQGKSPQLLVYNAKTVADGVPSRFSGSGSGTQYSLKINSLQPEDFGSYYCQTFWSTYTFGGGTKLEIKR; 9.47
Mutation 1-8 (antibody, mouse IgG2b, kappa, V domains shown) VH: QVQLQQPGAELVRPGASVKLSCKASGYSFTNYWMNWVKQRPGQGLEWIGMIHPSDSETRVNQKFKDKATLTVDKSSSTAYMQLSSLTAEDSAVYYCARSGDFYTTYFDYWGQGTTLTVSS VL: DIQLTQSPASLSASVGETVTITCRGTGNVHNYLAWYQQKQGKSPQLLVYNAKTIADGVPSRFSGSGSGTQYSLKINSLQPEDFGSYYCQYFWSTYTFGGGTKLEIKR; 9.32
Mutation 1-27 (antibody, mouse IgG2b, kappa, V domains shown) VH: QVQLQQPGAELVRPGASVKLSCKASGYSFTNYWMNWVKQRPGQGLEWIGMIHPSESETRINQKFKDKATLTVDKSSSTAYMQLSSLTAEDSAVYYCAKSGEFYTSYFDYWGQGTTLTVSS VL: DIQLTQSPASLSASVGETVTITCRGTGNVHNYLAWYQQKQGKSPQLLVYNARTLADGVPSRFSGSGSGTQYSLKINSLQPEDFGSYYCQSFWSTYTFGGGTKLEIKR; 9.37

In: Consider the binder Mutation 1-2 (antibody, mouse IgG2b, kappa, V domains shown) VH: QVQLQQPGAELVRPGASVKLSCKASGTSFTNYWMNWVKQRPGQGLEWIGMIHPSESETRVNQKFKDKATLTVDKSSSTAYMQLSSLTAEDSAVYYCAKSGDFYTTYFDYWGQGTTLTVSS VL: DIQLTQSPASLSASVGETVTITCRGSGNVHNYLAWYQQKQGKSPQLLVYNARTLADGVPSRFSGSGSGTQYSLKINSLQPEDFGSYYCQTFWSTYTFGGGTKLEIKR and give its measured pKd.
Out: 9.47

In: Request the reported pKd associated with Mutation 1-26 (antibody, mouse IgG2b, kappa, V domains shown) VH: QVQLQQPGAELVRPGASVKLSCKASGYSFTNYWMNWVKQRPGQGLEWIGMIHPSDSETRVNQKFKDKATLTVDKSSSTAYMQLSSLTAEDSAVYYCAKSGDFYTTYFDYWGQGTTLTVSS VL: DIQLTQSPASLSASVGETVTITCRGSGNVHNYLAWYQQKQGKSPQLLVYNAKTVADGVPSRFSGSGSGTQYSLKINSLQPEDFGSYYCQYFWSTYTFGGGTKLEIKR
Out: 9.43
